Provide the recorded pIC50 for the entries that follow.
Molecular target: SAE (Homo sapiens (Human), UniProt Q9UBT2)
Sequence (Q9UBT2 whole entry): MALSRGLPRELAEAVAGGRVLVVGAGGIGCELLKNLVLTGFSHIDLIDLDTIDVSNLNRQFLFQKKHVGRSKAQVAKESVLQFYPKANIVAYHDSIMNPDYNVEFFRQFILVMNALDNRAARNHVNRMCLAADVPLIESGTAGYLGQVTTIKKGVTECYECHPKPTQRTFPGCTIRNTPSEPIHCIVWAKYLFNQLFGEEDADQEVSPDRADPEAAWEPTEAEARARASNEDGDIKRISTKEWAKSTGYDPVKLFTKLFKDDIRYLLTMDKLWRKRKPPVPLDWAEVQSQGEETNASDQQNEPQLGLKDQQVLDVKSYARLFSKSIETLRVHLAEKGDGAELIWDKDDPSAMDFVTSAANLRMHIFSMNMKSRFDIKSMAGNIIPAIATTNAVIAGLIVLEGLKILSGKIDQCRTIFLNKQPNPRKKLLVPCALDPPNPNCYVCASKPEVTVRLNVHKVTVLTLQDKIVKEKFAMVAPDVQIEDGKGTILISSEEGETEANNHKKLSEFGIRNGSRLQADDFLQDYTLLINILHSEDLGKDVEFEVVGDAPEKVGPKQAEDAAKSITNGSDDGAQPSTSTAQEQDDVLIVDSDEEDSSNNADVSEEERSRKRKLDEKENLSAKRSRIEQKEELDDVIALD
Sequence (Q9UBE0 whole entry partner): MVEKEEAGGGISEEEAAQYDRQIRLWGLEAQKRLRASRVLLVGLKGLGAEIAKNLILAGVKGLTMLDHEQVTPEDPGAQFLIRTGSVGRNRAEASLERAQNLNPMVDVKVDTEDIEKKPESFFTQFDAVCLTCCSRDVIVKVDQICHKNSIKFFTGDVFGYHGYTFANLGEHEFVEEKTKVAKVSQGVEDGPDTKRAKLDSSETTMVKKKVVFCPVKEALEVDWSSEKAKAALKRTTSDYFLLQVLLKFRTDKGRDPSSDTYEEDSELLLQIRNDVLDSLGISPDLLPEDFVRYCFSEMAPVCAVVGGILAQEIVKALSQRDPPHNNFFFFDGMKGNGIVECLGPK
Assay: In vitro inhibitory activity assay against SAE (SUMO-2/3 immunofluorescence in HCT116 cells)
Type: cell-based
Details: 6 h incubation, class symbols, read-out: SUMO IF IC50
pIC50: −log10 of the molar value.

Some entries whose results are on file:
NS(=O)(=O)OC[C@H]1C[C@@H](Nc2ncncc2C(=O)c2cc3c(s2)COC[C@]32NCCc3ccc(Cl)c(F)c32)C[C@@H]1O    6.70 to 7.30
NS(=O)(=O)OC[C@H]1C[C@@H](Nc2ncncc2C(=O)c2cc3c(s2)CCC32NCC(=O)c3ccc(Cl)cc32)C[C@@H]1O (stereo partly shown)    6.70 to 7.30
NS(=O)(=O)OC[C@H]1C[C@@H](Nc2ncncc2C(=O)c2cc3c(s2)C=CC32NCCc3ccc(Cl)cc32)C[C@@H]1O (stereo partly shown)    ≥ 7.30
NS(=O)(=O)OC[C@H]1C[C@@H](Nc2ncncc2C(=O)c2cc3c(s2)CCCC32NCCc3ccccc32)C[C@@H]1O (stereo partly shown)    6.70 to 7.30
N#Cc1cc2c(cc1Cl)[C@@]1(CCCc3sc(C(=O)c4cncnc4N[C@@H]4C[C@H](COS(N)(=O)=O)[C@@H](O)C4)cc31)NCC2    ≥ 7.30
NS(=O)(=O)OC[C@H]1C[C@@H](Nc2ncncc2C(=O)c2cc3c(s2)CCCC32OCCc3ccccc32)C[C@@H]1O (stereo partly shown)    < 6.70
NS(=O)(=O)OC[C@H]1C[C@@H](Nc2ncncc2C(=O)c2cc3c(s2)CCC[C@@]32NCCc3cnc(Cl)cc32)C[C@@H]1O    < 6.70
NS(=O)(=O)OC[C@H]1C[C@@H](Nc2ncncc2C(=O)c2cc3c(s2)CC=CC32NCCc3ccc(Cl)cc32)C[C@@H]1O (stereo partly shown)    ≥ 7.30

List pIC50 for every entry below, keeping the order given.
1. NS(=O)(=O)OC[C@H]1C[C@@H](Nc2ncncc2C(=O)c2cc3c(s2)C=C[C@]32OCCc3ccc(F)cc32)C[C@@H]1O
2. NS(=O)(=O)OC[C@H]1C[C@@H](Nc2ncncc2C(=O)c2cc3c(s2)CCC[C@]32NCCc3cnc(Cl)cc32)C[C@@H]1O

1. ≥ 7.30
2. ≥ 7.30

List pIC50 for every entry below, keeping the order given.
1. NS(=O)(=O)OC[C@H]1C[C@@H](Nc2ncncc2C(=O)c2cc3c(s2)CSCC32NCCc3ccc(Cl)nc32)C[C@@H]1O (stereo partly shown)
2. CCN1Cc2sc(C(=O)c3cncnc3N[C@@H]3C[C@H](COS(N)(=O)=O)[C@@H](O)C3)cc2[C@@]2(C1)OCCc1ccc(Cl)cc12

1. 6.70 to 7.30
2. < 6.70

Would you mind telling me what pIC50 value was observed for NS(=O)(=O)OC[C@H]1C[C@@H](Nc2ncncc2C(=O)c2cc3c(s2)CCC[C@]32NCC3(CC3)c3ccc(Cl)cc32)C[C@@H]1O [Compound 219] ?
≥ 7.30
